All figures here come from ChEMBL document CHEMBL1817595.

molecular target: Bifunctional dihydrofolate reductase-thymidylate synthase (Toxoplasma gondii); assay: Inhibition of Toxoplasma gondii DHFR by spectrophotometry
Sequence (Q07422 whole entry): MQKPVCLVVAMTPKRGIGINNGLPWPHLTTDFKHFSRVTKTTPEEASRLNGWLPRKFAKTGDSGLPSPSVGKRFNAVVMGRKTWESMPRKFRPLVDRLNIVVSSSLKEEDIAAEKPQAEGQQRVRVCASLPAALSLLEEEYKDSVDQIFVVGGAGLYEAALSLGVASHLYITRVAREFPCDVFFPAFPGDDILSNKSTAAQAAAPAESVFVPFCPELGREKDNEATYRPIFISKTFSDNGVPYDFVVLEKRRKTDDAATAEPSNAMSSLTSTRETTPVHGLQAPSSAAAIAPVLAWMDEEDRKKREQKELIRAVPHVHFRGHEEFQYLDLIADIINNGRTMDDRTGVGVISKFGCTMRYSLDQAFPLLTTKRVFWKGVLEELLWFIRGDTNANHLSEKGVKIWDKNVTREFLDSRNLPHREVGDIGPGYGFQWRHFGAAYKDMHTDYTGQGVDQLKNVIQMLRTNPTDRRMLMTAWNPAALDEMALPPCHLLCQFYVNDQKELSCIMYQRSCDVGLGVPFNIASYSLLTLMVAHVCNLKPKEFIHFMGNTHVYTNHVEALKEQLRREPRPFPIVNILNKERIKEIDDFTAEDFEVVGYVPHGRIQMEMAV
MEASUREMENT NAME: pIC50
Answers are plain numbers, as −log10 of the molar value.

Cc1[nH]c2nc(N)[nH]c(=O)c2c1Sc1ccc(C(=O)N[C@@H](CCC(=O)O)C(=O)O)cc1 | 6.64

Please state, for each entry, its recorded pIC50.
1. Cc1nc2sc3cccc(CNc4ccc5c(c4)CN([C@@H](CCC(=O)O)C(=O)O)C5=O)c3c2c(=O)[nH]1
2. Cc1nc2sc3cccc(CNc4ccc(C(=O)N[C@@H](CCC(=O)O)C(=O)O)cc4)c3c2c(=O)[nH]1
3. Nc1nc2sc3cccc(CNc4ccc(C(=O)N[C@@H](CCC(=O)O)C(=O)O)cc4)c3c2c(=O)[nH]1
4. Cc1nc2ccc3ccc(CNc4ccc5c(c4)CN([C@@H](CCC(=O)O)C(=O)O)C5=O)cc3c2c(=O)[nH]1
5. Nc1nc2sc3cccc(CNc4ccc5c(c4)CN([C@@H](CCC(=O)O)C(=O)O)C5=O)c3c2c(=O)[nH]1

**A:**
1: 5.74; 2: 5.85; 3: 7.70; 4: 6.15; 5: 8.00

* * *

target: UniProtKB P0ABQ4
Sequence (P0ABQ4 whole entry): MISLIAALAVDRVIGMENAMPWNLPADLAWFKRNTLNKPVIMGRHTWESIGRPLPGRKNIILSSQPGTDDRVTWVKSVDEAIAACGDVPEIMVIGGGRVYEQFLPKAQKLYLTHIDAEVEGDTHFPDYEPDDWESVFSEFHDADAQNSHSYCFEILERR
Could you please report measured IC50 for the items listed next?
Numbers only, in µM.

Cc1nc2ccc3ccc(CNc4ccc5c(c4)CN([C@@H](CCC(=O)O)C(=O)O)C5=O)cc3c2c(=O)[nH]1 [OSI-7904] | 20

Please state, for each entry, its recorded IC50.
1. Cc1[nH]c2nc(N)[nH]c(=O)c2c1Sc1ccc(C(=O)N[C@@H](CCC(=O)O)C(=O)O)cc1
2. Nc1nc2sc3cccc(CNc4ccc5c(c4)CN([C@@H](CCC(=O)O)C(=O)O)C5=O)c3c2c(=O)[nH]1
3. Nc1nc2sc3cccc(CNc4ccc(C(=O)N[C@@H](CCC(=O)O)C(=O)O)cc4)c3c2c(=O)[nH]1
4. Cc1nc2sc3cccc(CNc4ccc(C(=O)N[C@@H](CCC(=O)O)C(=O)O)cc4)c3c2c(=O)[nH]1

**A:**
1: 22; 2: 0.4; 3: 0.4; 4: 15

* * *

Could you please report measured pIC50 for the items listed next?
Protein target, amino acids: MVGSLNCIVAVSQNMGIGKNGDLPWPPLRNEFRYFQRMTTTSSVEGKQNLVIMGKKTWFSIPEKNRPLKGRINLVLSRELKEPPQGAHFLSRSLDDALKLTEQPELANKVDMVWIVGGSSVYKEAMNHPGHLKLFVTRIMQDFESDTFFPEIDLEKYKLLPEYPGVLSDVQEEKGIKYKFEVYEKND
One number for each entry, as −log10 of the molar value.

Nc1nc2sc3cccc(CNc4ccc(C(=O)N[C@@H](CCC(=O)O)C(=O)O)cc4)c3c2c(=O)[nH]1 | 7.05

Moving on to another compound below.
**Q:** Query (compound): `Nc1nc2sc3cccc(CNc4ccc5c(c4)CN([C@@H](CCC(=O)O)C(=O)O)C5=O)c3c2c(=O)[nH]1` ; field requested: pIC50
**A:** 7.00

* * *

Could you please report measured IC50 for the items listed next?
molecular target: Thymidylate synthase (Homo sapiens, UniProt P04818); assay: Inhibition of human TS assessed as oxidation of tetrahydrofolate to dihydrofolate after 2 to 12 mins by spectrophotometry
Sequence (P04818 whole entry): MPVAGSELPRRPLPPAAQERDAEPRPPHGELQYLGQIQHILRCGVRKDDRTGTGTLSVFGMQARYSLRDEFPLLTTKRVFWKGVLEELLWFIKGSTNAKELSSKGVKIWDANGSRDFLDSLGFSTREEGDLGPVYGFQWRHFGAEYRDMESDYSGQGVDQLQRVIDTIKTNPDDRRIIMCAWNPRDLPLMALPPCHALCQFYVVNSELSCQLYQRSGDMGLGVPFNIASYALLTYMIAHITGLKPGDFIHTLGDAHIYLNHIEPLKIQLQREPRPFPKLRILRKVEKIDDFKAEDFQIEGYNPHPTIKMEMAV
Answers are plain numbers, in nM.

Please review the following examples before continuing.
Nc1nc2sc3cccc(CNc4ccc5c(c4)CN([C@@H](CCC(=O)O)C(=O)O)C5=O)c3c2c(=O)[nH]1 | 34
Cc1nc2sc3cccc(CNc4ccc5c(c4)CN([C@@H](CCC(=O)O)C(=O)O)C5=O)c3c2c(=O)[nH]1 | 800
Cc1nc2sc3cccc(CNc4ccc(C(=O)N[C@@H](CCC(=O)O)C(=O)O)cc4)c3c2c(=O)[nH]1 | 260

**Q:** Query (molecule): `Nc1nc2sc3cccc(CNc4ccc(C(=O)N[C@@H](CCC(=O)O)C(=O)O)cc4)c3c2c(=O)[nH]1` ; field requested: IC50
**A:** 68
